# target: F protein of wild type RSV A/Long (respiratory syncytial virus strain …, UniProt P12568 26-574)
# Sequence (P12568 26-574): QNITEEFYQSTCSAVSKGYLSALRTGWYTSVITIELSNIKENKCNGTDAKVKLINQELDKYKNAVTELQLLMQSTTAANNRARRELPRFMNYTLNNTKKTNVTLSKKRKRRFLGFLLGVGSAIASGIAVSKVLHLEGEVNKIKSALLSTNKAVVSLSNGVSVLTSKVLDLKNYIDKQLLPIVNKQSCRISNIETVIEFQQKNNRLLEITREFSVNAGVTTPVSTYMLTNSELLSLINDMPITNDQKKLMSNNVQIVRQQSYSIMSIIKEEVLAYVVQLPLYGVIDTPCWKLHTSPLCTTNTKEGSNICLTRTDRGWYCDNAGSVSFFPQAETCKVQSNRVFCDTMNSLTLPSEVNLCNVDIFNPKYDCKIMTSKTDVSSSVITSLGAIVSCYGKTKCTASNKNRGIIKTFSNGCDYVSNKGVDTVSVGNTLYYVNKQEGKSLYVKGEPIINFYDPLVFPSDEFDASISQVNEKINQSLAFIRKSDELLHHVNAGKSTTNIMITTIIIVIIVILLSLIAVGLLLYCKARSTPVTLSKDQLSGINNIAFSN
# experiment.description: cell-based or functional assay
measured.metric: Fold Difference (Control IC50) (fold)

- binder: "A4B4 (Fab fragment) (Fab, V domains shown) VH: QVTLRESGPALVKPTQTLTLTCTFSGFSLSTAGMSVGWIRQPPGKALEWLADIWWDDKKHYNPSLKDRLTISKDTSKNQVVLKVTNMDPADTATYYCARDMIFNFYFDVWGQGTTVTVSS VL: DIQMTQSPSTLSASVGDRVTITCSASSRVGYMHWYQQKPGKAPKLLIYDTFFLDSGVPSRFSGSGSGTEFTLTISSLQPDDFATYYCFQGSGYPFTFGGGTKLEIK"
  measured.metric: "Fold Difference (Control IC50)"
  recorded.measurement: 13
- binder: "A17d4 (monoclonal antibody) (antibody, V domains shown, mAb with framework and constant regions of SYNAGIS) VH: QVTLRESGPALVKPTQTLTLTCTFSGFSLSTAGMSVGWIRQPPGKALEWLADIWWDGKKSYNPSLKDRLTISKDTSKNQVVLKVTNMDPADTATYYCARDMIFNFYFDVWGQGTTVTVSS VL: DIQMTQSPSTLSASVGDRVTITCLPSSRVGYMHWYQQKPGKAPKLLIYDTMYQASGVPSRFSGSGSGTEFTLTISSLQPDDFATYYCFQFSGYPFTFGGGTKLEIK"
  measured.metric: "Fold Difference (Control IC50)"
  recorded.measurement: 15
- binder: "A13c4 (Fab fragment) (Fab, V domains shown, Fab) VH: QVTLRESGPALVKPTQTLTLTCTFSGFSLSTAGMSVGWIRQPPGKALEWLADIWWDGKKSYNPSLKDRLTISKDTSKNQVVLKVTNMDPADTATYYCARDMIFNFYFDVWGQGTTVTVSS VL: DIQMTQSPSTLSASVGDRVTITCSLSSRVGYMHWYQQKPGKAPKLLIYDTMYQSSGVPSRFSGSGSGTEFTLTISSLQPDDFATYYCFQGSGYPFTFGGGTKVEIK"
  measured.metric: "Fold Difference (Control IC50)"
  recorded.measurement: 21
